# experimental details: S16 Schwann cell PMP22 intronic element beta-lactamase assay (AID 624044); also: nearly all actives have a fitted effect of over 15% in size
# assay conditions: S16 rat Schwann cells, PMP22 element beta-lactamase FRET, 24 h; at 38.3 µM (top of the series) unless noted
Inconclusive results are not listed. Active and inactive are the calls of the source. Calls follow the shape of the full dose curve.
Form entry, call: pick from active, inactive

Use the examples below as a reference point.
CCCCCCCCCCCCCCCCCC(=O)OC[C@@H](O)[C@H]1OC[C@H](O)[C@H]1O : inactive
Cc1cccc(C)c1NC(=O)NC1=CCCN1C : inactive
O=C1c2ccccc2CN2C(=O)c3ccccc3CN12 : inactive
CCc1ccc(S(=O)(=O)O)cc1 : inactive
CC12CCC(C1)C(C)(C)C2=O (stereo not given) : inactive

// param item: Cc1cc2nc3c(=O)[nH]c(=O)nc-3n(C[C@H](O)[C@H](O)[C@H](O)COP(=O)(O)OP(=O)(O)OC[C@H]3O[C@@H](n4cnc5c(N)ncnc54)[C@H](O)[C@@H]3O)c2cc1C ; yields the recorded call
inactive

###

# Test system: CP237
# experimental details: qHTS profiling for inhibitors of Plasmodium falciparum proliferation (AID 504749); also: nearly all actives have a fitted effect of over 60% in size
# assay conditions: P. falciparum in erythrocytes, SYBR Green DNA, 72 h; series mostly up to 28.7 µM
Results filed as inconclusive are left out. Active and inactive are the calls of the source. Calls follow the shape of the dose curve; as a rule, active = well fitted inhibition curve with a large enough effect; inconclusive = small, poorly fitted or top-dose-only effect; inactive = flat fitted curve, though single readings scatter.
Please answer using one outcome listed in yes for active, no for inactive

CCCc1ccc(C(=O)O)cc1 : no
O=C(O)C1=C(CSc2nnnn2CS(=O)(=O)O)CS[C@@H]2[C@H](NC(=O)[C@H](O)c3ccccc3)C(=O)N12 : no
CC(C)OC(=O)Nc1ccc2nc(-c3cscn3)[nH]c2c1 : no
CN(C)CCOc1ccc(/C(=C(/CCCl)c2ccccc2)c2ccccc2)cc1 : no
O=C(O)[C@H]1C(=CCO)O[C@H]2CC(=O)N12 : no

Per the assay record, what outcome was assigned to NCC[C@H](O)C(=O)N[C@@H]1C[C@H](N)[C@@H](O[C@H]2O[C@H](CN)[C@@H](O)[C@H](O)[C@H]2O)[C@H](O)[C@H]1O[C@H]1O[C@H](CO)[C@@H](O)[C@H](N)[C@H]1O ?
no

Hey, what did the test say about O=S(=O)(O)CCCS(=O)(=O)O ?
no

Each compound tested received a call. Report the one for COC(=O)C(CN)c1c[nH]c2ccc(OC)cc12 (stereo unspecified) .
no

What is the recorded call for this compound in the test? O=C(NCCNCC(O)COc1ccc(O)cc1)N1CCOCC1 (stereo unspecified)
no

Which result was noted for this compound in the test: O=C1c2ccccc2C(=O)c2c1ccc(O)c2O
no

// return assay outcome for CC1=CC(=C(c2ccc(N)cc2)c2ccc(N)cc2)C=CC1=N
yes

Short answer needed: outcome of this test for NC(=O)C1c2ccccc2CCc2ccccc21 ?
no

For C=CC[C@@H]1/C=C(\C)C[C@H](C)C[C@H](OC)[C@H]2O[C@@](O)(C(=O)C(=O)N3CCCC[C@H]3C(=O)O[C@H](/C(C)=C/[C@@H]3CC[C@@H](O)[C@H](OC)C3)[C@H](C)[C@@H](O)CC1=O)[C@H](C)C[C@@H]2OC , which call appears in the assay record?
yes

State the result this test recorded for CC(CC=O)CCCC(C)(C)O (stereo unspecified) .
no

What did this assay record as the result for COc1ccc(C(=O)c2ccc(C)cc2)c(O)c1 ?
no

What did this assay record as the result for CC1=CCC2CC1C2(C)C (stereo unspecified) ?
no

Would you mind telling me which call this test gave CC1CCCCN1CCCOC(=O)c1ccccc1 (stereo unspecified) ?
no

Short answer needed: outcome of this test for CCOc1ccc(NC(=S)Nc2ccc(OCC)cc2)cc1 ?
no
